Source of measurements: paper PMC12648310

ASSAY_METHOD_TEXT: Pharmacokinetics in SD rats
Assay type: in vivo, Sprague–Dawley (SD) rats
ASSAY_CONDITIONS: male, Sprague-Dawley, rat, plasma, IP 20 mg/kg, mean
ATTRIBUTE_MEASURED: half-life (h)
Entry rule: numbers only, all in h.

Briefly, half-life measured for Cc1sc2c(c1C)C(c1ccc(Cl)cc1)=NC(CC(=O)NCCNC(=O)OC1CCC=CCCC1)c1nnc(C)n1-2 (stereo not shown) : 2.07

====

ASSAY_METHOD_TEXT: Pharmacokinetics in SD rats
Assay type: in vivo, Sprague–Dawley (SD) rats
ASSAY_CONDITIONS: male, Sprague-Dawley, rat, plasma, IP 10 mg/kg, mean
ATTRIBUTE_MEASURED: AUC(0-t) (ng·h/mL)
Entry rule: numbers only, all in ng·h/mL.

Briefly, AUC(0-t) measured for Cc1nnc(CNC(=O)CCOCC(COCCC(=O)NCc2nnc(C)nn2)NC(=O)COc2cccc3c2C(=O)N(C2CCC(=O)NC2=O)C3=O)nn1 (stereo not shown) : 405

====

ASSAY_METHOD_TEXT: Pharmacokinetics in SD rats
Assay type: in vivo, Sprague–Dawley (SD) rats
ASSAY_CONDITIONS: male, Sprague-Dawley, rat, plasma, IP 20 mg/kg, mean
ATTRIBUTE_MEASURED: AUC(0-t) (ng·h/mL)
Entry rule: numbers only, all in ng·h/mL.

Briefly, AUC(0-t) measured for Cc1sc2c(c1C)C(c1ccc(Cl)cc1)=NC(CC(=O)NCCNC(=O)OC1CCC=CCCC1)c1nnc(C)n1-2 (stereo not shown) : 7660

====

ASSAY_METHOD_TEXT: Pharmacokinetics in SD rats
Format: in vivo, Sprague–Dawley (SD) rats
ASSAY_CONDITIONS: male, Sprague-Dawley, rat, plasma, IP 10 mg/kg
ATTRIBUTE_MEASURED: half-life

COMPOUND	MEASUREMENT
Cc1sc2c(c1C)C(c1ccc(Cl)cc1)=NC(CC(=O)NCCNC(=O)OC1CCC=CCCC1)c1nnc(C)n1-2 (centres unmarked)	~124 min

For the next question, use this compound.
Briefly, half-life measured for Cc1nnc(CNC(=O)CCOCC(COCCC(=O)NCc2nnc(C)nn2)NC(=O)COc2cccc3c2C(=O)N(C2CCC(=O)NC2=O)C3=O)nn1 (centres unmarked) : 22.6 min

====

Below, each of the molecules is paired with its reported half-life value.
ASSAY_METHOD_TEXT: Pharmacokinetics in SD rats
Type: in vivo, Sprague–Dawley (SD) rats
ASSAY_CONDITIONS: male, Sprague-Dawley, rat, plasma, IV 5 mg/kg, mean
Entry rule: numbers only, all in h.

MOLECULE	ATTRIBUTE_MEASURED	UNITS_LABEL	MEASUREMENT
Cc1nnc(CNC(=O)CCOCC(COCCC(=O)NCc2nnc(C)nn2)NC(=O)COc2cccc3c2C(=O)N(C2CCC(=O)NC2=O)C3=O)nn1 (centres unmarked)	half-life	h	0.67

For the next question, use this molecule.
Briefly, half-life measured for Cc1sc2c(c1C)C(c1ccc(Cl)cc1)=NC(CC(=O)NCCNC(=O)OC1CCC=CCCC1)c1nnc(C)n1-2 (centres unmarked) : 1.97

====

ASSAY_METHOD_TEXT: Pharmacokinetics in SD rats
Assay type: in vivo, Sprague–Dawley (SD) rats
ASSAY_CONDITIONS: male, Sprague-Dawley, rat, plasma, IP 20 mg/kg, mean
ATTRIBUTE_MEASURED: AUC(0-inf) (ng·h/mL)
Entry rule: numbers only, all in ng·h/mL.

Briefly, AUC(0-inf) measured for Cc1sc2c(c1C)C(c1ccc(Cl)cc1)=NC(CC(=O)NCCNC(=O)OC1CCC=CCCC1)c1nnc(C)n1-2 (stereo not shown) : 7670
